List of pIC50 values.
EXPERIMENTAL SYSTEM: KCNQ2 + KCNQ3 (UniProt O43526+O88944, DEL417-446)
Construct: Full-length KCNQ2 cDNAs were amplified from adult human brain cDNA; Multiple full-length cDNA clones were amplified in independent PCR reactions from rat SCG cDNA
PROCEDURE TEXT: Blockade of KCNQ2+KCNQ3 channels expressed in Xenopus oocytes
CONDITION SET: mean±s.e.m.
A value of pIC50 is the negative decimal logarithm of a concentration given in moles per litre.

• O=C1N(c2ccccc2)c2ccccc2C1(Cc1ccncc1)Cc1ccncc1 = 5.40

Exercise: Give pIC50; test system KCNQ2 + KCNQ3 (UniProt O43526+O88944, DEL417-446); compound O=C1c2ccccc2C(Cc2ccncc2)(Cc2ccncc2)c2ccccc21
Key: 6.22
